Read-out: Secreted IgG (sIgG), gene 3500
assay_explanation: BSK_BT_sIgG: BioMAP Diversity Plus: BT Assay for Secreted IgG (sIgG) Biomarker Activity (AID 2284226)
condition_info: primary human B cells with PBMC
Active and inactive are the calls of the source. The calls were made as follows: active = hit-call score of the fitted dose curve at least 0.9, where 1 is the maximum; inactive = score below 0.9.

[
  {
    "molecule": "OC(Cc1ccccc1Cl)(Cn1cncn1)C1(Cl)CC1 (configuration not stated)",
    "AC50": "20 µM (active)"
  },
  {
    "molecule": "CCOC(=O)C(SP(=S)(OC)OC)c1ccccc1 (configuration not stated)",
    "AC50": "inactive"
  },
  {
    "molecule": "O=S(=O)(C(Cl)(Cl)Cl)C(Cl)(Cl)Cl",
    "AC50": "2.2 µM (active)"
  },
  {
    "molecule": "COCC(=O)N(c1c(C)cccc1C)[C@H](C)C(=O)OC",
    "AC50": "inactive"
  },
  {
    "molecule": "O=c1oc2ccccc2c(O)c1C(CC(O)c1ccc(-c2ccc(Br)cc2)cc1)c1ccccc1 (configuration not stated)",
    "AC50": "20.8 µM (active)"
  },
  {
    "molecule": "CCOP(=S)(OCC)SCS(=O)(=O)C(C)(C)C",
    "AC50": "inactive"
  },
  {
    "molecule": "CCOP(=S)(OCC)OP(=S)(OCC)OCC",
    "AC50": "inactive"
  },
  {
    "molecule": "C[C@]12CC[C@@H](O)C[C@@H]1CC[C@@H]1[C@@H]2CC[C@]2(C)C(=O)CC[C@@H]12",
    "AC50": "20 µM (active)"
  },
  {
    "molecule": "Nc1c(Oc2ccccc2)cc(O)c2c1C(=O)c1ccccc1C2=O",
    "AC50": "inactive"
  },
  {
    "molecule": "CC(C)N(C(=O)CCl)c1ccccc1",
    "AC50": "7.82 µM (active)"
  },
  {
    "molecule": "O=[N+]([O-])c1ccc(Nc2ccccc2)cc1",
    "AC50": "12.9 µM (active)"
  },
  {
    "molecule": "CCOP(=O)(OCC)OC(=CCl)c1ccc(Cl)cc1Cl",
    "AC50": "20 µM (active)"
  }
]

* * *

Read-out: CYP2C8 (gene 1558)
assay_explanation: LTEA_HepaRG_CYP2C8: Life Technologies and Expression Analysis (LTEA) Assay for CYP2C8 using HepaRG (AID 2283483)
condition_info: mRNA level, 48 h; actives raise or lower the signal
Active and inactive are the calls of the source. The calls were made as follows: active = hit-call score of the fitted dose curve at least 0.9, where 1 is the maximum; inactive = score below 0.9.
Outcomes: active, inactive

[
  {
    "structure": "Oc1cc(Cl)c(Cl)cc1Cl",
    "label_value": "inactive"
  },
  {
    "structure": "Clc1cccc(Cl)c1",
    "label_value": "inactive"
  },
  {
    "structure": "COc1ccccc1N",
    "label_value": "inactive"
  },
  {
    "structure": "CC(C)O.CC(C)O.OCCN(CCO)CCO.OCCN(CCO)CCO.[Ti]",
    "label_value": "inactive"
  },
  {
    "structure": "CC(C)(C)c1ccccc1O",
    "label_value": "active"
  },
  {
    "structure": "Cc1cc(C)cc(C)c1",
    "label_value": "inactive"
  },
  {
    "structure": "Clc1cccc(Cl)c1Cl",
    "label_value": "inactive"
  },
  {
    "structure": "O=C(N[C@H]1CN2CCC1CC2)c1ccc2c(c1)OCCO2",
    "label_value": "inactive"
  },
  {
    "structure": "N#Cc1cccnc1",
    "label_value": "inactive"
  },
  {
    "structure": "O=C(O)C1(c2ccc3c(c2)OC[C@H](Cc2ccc(-c4ccccc4)cc2)[C@H]3O)CCCC1",
    "label_value": "inactive"
  }
]

* * *

test_system: Paired box protein Pax-6 (Homo sapiens) (UniProt P26367)
Sequence (P26367 whole entry, looked up): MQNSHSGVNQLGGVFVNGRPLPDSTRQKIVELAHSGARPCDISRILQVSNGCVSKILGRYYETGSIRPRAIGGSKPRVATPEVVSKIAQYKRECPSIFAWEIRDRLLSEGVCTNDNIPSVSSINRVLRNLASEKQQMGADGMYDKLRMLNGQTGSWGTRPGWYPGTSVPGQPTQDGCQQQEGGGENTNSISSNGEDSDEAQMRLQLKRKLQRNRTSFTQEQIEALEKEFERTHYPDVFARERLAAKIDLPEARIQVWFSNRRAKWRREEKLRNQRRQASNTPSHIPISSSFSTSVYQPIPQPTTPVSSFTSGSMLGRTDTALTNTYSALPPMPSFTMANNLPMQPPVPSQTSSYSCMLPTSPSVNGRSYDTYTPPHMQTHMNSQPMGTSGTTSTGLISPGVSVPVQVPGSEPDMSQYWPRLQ
assay_explanation: ATG_Pax6_CIS: Attagene CIS-FACTORIAL HepG2 Assay for human Paired Box 6 (PAX6) (AID 2282956)
condition_info: HepG2 CIS-FACTORIAL PAX6 reporter transcription, RNA readout; actives raise or lower the signal
Calls of active or inactive are those of the source. Rule for the calls: active = hit-call score of the fitted dose curve at least 0.9, where 1 is the maximum; inactive = score below 0.9.
Outcomes: active, inactive

[
  {
    "molecule": "OC[C@@H](O)[C@H]1O[C@@H]2O[C@H](C(Cl)(Cl)Cl)O[C@@H]2[C@H]1O",
    "label_value": "inactive"
  },
  {
    "molecule": "OC(c1ccc(Cl)cc1)(c1ccc(Cl)cc1)c1cccnc1",
    "label_value": "inactive"
  },
  {
    "molecule": "Clc1cnc(Oc2ccc(Oc3ncc(Cl)cc3Cl)cc2)c(Cl)c1",
    "label_value": "inactive"
  },
  {
    "molecule": "Cc1cc(C)cc(C)c1",
    "label_value": "inactive"
  },
  {
    "molecule": "Nc1ncn[nH]1",
    "label_value": "inactive"
  },
  {
    "molecule": "OC[P+](CO)(CO)CO",
    "label_value": "inactive"
  },
  {
    "molecule": "CCN(N=O)C(N)=O",
    "label_value": "inactive"
  },
  {
    "molecule": "COCCl",
    "label_value": "inactive"
  },
  {
    "molecule": "O=C(O)C1(c2ccc3c(c2)OC[C@H](Cc2ccc(-c4ccccc4)cc2)[C@H]3O)CCCC1",
    "label_value": "inactive"
  },
  {
    "molecule": "CCC[CH2][Sn]([Cl])([Cl])[CH2]CCC",
    "label_value": "active"
  },
  {
    "molecule": "Oc1cc(Cl)c(Cl)cc1Cl",
    "label_value": "active"
  },
  {
    "molecule": "CC1(C)[C@H](/C=C2\\CCSC2=O)[C@@H]1C(=O)OCc1coc(Cc2ccccc2)c1",
    "label_value": "active"
  },
  {
    "molecule": "O=C/C(Cl)=C(/Cl)C(=O)O",
    "label_value": "active"
  },
  {
    "molecule": "CN(N=O)c1ccc([N+](=O)[O-])cc1",
    "label_value": "inactive"
  },
  {
    "molecule": "CCOP(=O)(OCC)OC(=CCl)c1ccc(Cl)cc1Cl",
    "label_value": "inactive"
  },
  {
    "molecule": "Oc1c(Cl)cc(Cl)cc1Cl",
    "label_value": "inactive"
  },
  {
    "molecule": "O=C(NC(=O)c1c(F)cccc1F)Nc1cc(Cl)c(OC(F)(F)C(F)C(F)(F)F)cc1Cl (configuration not stated)",
    "label_value": "inactive"
  },
  {
    "molecule": "COc1ccccc1N",
    "label_value": "inactive"
  },
  {
    "molecule": "CC(C)(C#N)N=NC(C)(C)C#N",
    "label_value": "inactive"
  },
  {
    "molecule": "O=[N+]([O-])c1ccccc1O",
    "label_value": "inactive"
  },
  {
    "molecule": "O=C(Nc1ccc(Br)cc1)c1cc(Br)cc(Br)c1O",
    "label_value": "active"
  },
  {
    "molecule": "COC(F)(C(F)(F)C(F)(F)F)C(F)(C(F)(F)F)C(F)(F)F (configuration not stated)",
    "label_value": "inactive"
  },
  {
    "molecule": "CCCSP(=S)(OCC)Oc1ccc(SC)cc1 (configuration not stated)",
    "label_value": "inactive"
  },
  {
    "molecule": "Cc1ccc2nc3sc(=O)sc3nc2c1",
    "label_value": "active"
  },
  {
    "molecule": "O=S1OC[C@@H]2[C@H](CO1)[C@]1(Cl)C(Cl)=C(Cl)[C@@]2(Cl)C1(Cl)Cl (some centres not stated)",
    "label_value": "inactive"
  },
  {
    "molecule": "O=S(=O)(c1ccc(Cl)cc1)c1cc(Cl)c(Cl)cc1Cl",
    "label_value": "inactive"
  },
  {
    "molecule": "O=NN1CCCCCC1",
    "label_value": "inactive"
  },
  {
    "molecule": "OC(Cc1ccccc1Cl)(Cn1[nH]cnc1=S)C1(Cl)CC1 (configuration not stated)",
    "label_value": "inactive"
  },
  {
    "molecule": "Cc1cc(Cl)ccc1O",
    "label_value": "inactive"
  },
  {
    "molecule": "CCCCC(CC)COC(=O)Cl (configuration not stated)",
    "label_value": "inactive"
  },
  {
    "molecule": "CC(=Cc1ccccc1)[N+](=O)[O-]",
    "label_value": "active"
  },
  {
    "molecule": "Cc1cccc(N=Nc2ccc(N(C)C)cc2)c1",
    "label_value": "inactive"
  },
  {
    "molecule": "N#Cc1cccnc1",
    "label_value": "inactive"
  },
  {
    "molecule": "C=CC(=O)NC(C)(C)CC(C)=O",
    "label_value": "inactive"
  },
  {
    "molecule": "O=[N+]([O-])c1c2ccccc2cc2ccccc12",
    "label_value": "inactive"
  },
  {
    "molecule": "Cc1cc(-c2cc(C)c(N)c(C)c2)cc(C)c1N",
    "label_value": "inactive"
  },
  {
    "molecule": "Cl[C@H]1OCCO[C@@H]1Cl",
    "label_value": "inactive"
  },
  {
    "molecule": "CC(C)(COCC1CO1)COCC1CO1 (configuration not stated)",
    "label_value": "inactive"
  },
  {
    "molecule": "O=S(=O)(F)C(F)(F)C(F)(F)C(F)(F)C(F)(F)F",
    "label_value": "inactive"
  },
  {
    "molecule": "CC1(C)[C@H](C(=O)O[C@H](C#N)c2cccc(Oc3ccccc3)c2)[C@@H]1/C=C(\\Cl)C(F)(F)F",
    "label_value": "inactive"
  },
  {
    "molecule": "Clc1cccc(Cl)c1Cl",
    "label_value": "inactive"
  },
  {
    "molecule": "NC(=O)c1ccc(N)nc1",
    "label_value": "inactive"
  },
  {
    "molecule": "BrCCCCBr",
    "label_value": "inactive"
  },
  {
    "molecule": "CN(CCCC(O)c1cccnc1)N=O (configuration not stated)",
    "label_value": "inactive"
  },
  {
    "molecule": "Oc1ccc(Cc2ccc(O)cc2)cc1",
    "label_value": "inactive"
  },
  {
    "molecule": "O=S(=O)(C(Cl)(Cl)Cl)C(Cl)(Cl)Cl",
    "label_value": "active"
  },
  {
    "molecule": "N#CCCC(Br)(C#N)CBr (configuration not stated)",
    "label_value": "active"
  },
  {
    "molecule": "CCOc1ccc(N)cc1",
    "label_value": "inactive"
  },
  {
    "molecule": "O=C(NC(=O)c1c(F)cccc1F)Nc1cc(Cl)c(F)c(Cl)c1F",
    "label_value": "inactive"
  },
  {
    "molecule": "OC(Cc1ccccc1Cl)(Cn1cncn1)C1(Cl)CC1 (configuration not stated)",
    "label_value": "inactive"
  },
  {
    "molecule": "CN(C)CCN(C)C",
    "label_value": "inactive"
  },
  {
    "molecule": "OCCCCO",
    "label_value": "inactive"
  },
  {
    "molecule": "CCCCC(CC)C(=O)Cl (configuration not stated)",
    "label_value": "inactive"
  },
  {
    "molecule": "CCOP(=S)(OCC)OP(=S)(OCC)OCC",
    "label_value": "inactive"
  },
  {
    "molecule": "COC(=O)c1cc(Oc2ccc(Cl)cc2Cl)ccc1[N+](=O)[O-]",
    "label_value": "inactive"
  },
  {
    "molecule": "Oc1c(Br)cc(Br)cc1Br",
    "label_value": "inactive"
  },
  {
    "molecule": "CC(O)(CS(=O)(=O)c1ccc(F)cc1)C(=O)Nc1ccc(C#N)c(C(F)(F)F)c1 (configuration not stated)",
    "label_value": "inactive"
  }
]

Hello, the source for this data is PubChem BioAssay (EPA / NIEHS), in case you need it.
